Target: G-protein coupled receptor 84 (Homo sapiens)
Experiment: Agonist activity at human GPR84 expressed in CHO cells assessed as beta-arrestin recruitment at 10 uM after 90 mins by beta-galactosidase complementation assay relative to embelin
Assay type: cell-based
readout: Emax (%)
One number for each entry, in %.

c1cc2c(c(C(c3c[nH]c4ccccc34)c3c[nH]c4ccccc34)c1)OCO2 :: 7
Clc1ccc2c(Cc3c[nH]c4cc(Cl)ccc34)c[nH]c2c1 :: 118
COc1ccc2[nH]cc(C=C3C(=O)Nc4ccc(F)cc43)c2c1 :: -31
c1ccc2c(Cc3c[nH]c4ccccc34)c[nH]c2c1 [ARUNDINE] :: 60

Next molecule, Emax to be filled in.
Query: Name the recorded Emax for Cc1ccc2[nH]cc(Cc3c[nH]c4ccc(C)cc34)c2c1 .
Response: 49

====

Target: G-protein coupled receptor 84 (Homo sapiens, UniProt Q9NQS5)
Sequence (Q9NQS5 whole entry): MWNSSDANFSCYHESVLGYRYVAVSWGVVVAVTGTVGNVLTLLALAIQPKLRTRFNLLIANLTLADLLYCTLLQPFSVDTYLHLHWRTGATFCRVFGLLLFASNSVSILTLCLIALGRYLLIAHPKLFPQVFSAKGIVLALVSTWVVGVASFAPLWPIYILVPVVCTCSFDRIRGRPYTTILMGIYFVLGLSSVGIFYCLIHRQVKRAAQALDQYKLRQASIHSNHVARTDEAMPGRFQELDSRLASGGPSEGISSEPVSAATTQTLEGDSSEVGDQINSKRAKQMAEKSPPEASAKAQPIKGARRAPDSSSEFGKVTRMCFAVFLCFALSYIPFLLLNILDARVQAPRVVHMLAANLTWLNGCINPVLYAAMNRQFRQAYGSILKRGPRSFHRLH
Experiment: Agonist activity at Gi coupled human GPR84 expressed in CHO cells assessed as inhibition of forskolin-induced cAMP accumulation after 15 mins in presence of [3H]-cAMP by radiometric assay
Assay type: functional, cell-based
pEC50: −log10 of the molar value.
readout: pEC50

List the reported pEC50 of each molecule below.
1. Fc1cc2[nH]cc(Cc3c[nH]c4cc(F)c(F)cc34)c2cc1F
2. COc1ccc2[nH]cc(C=C3C(=O)Nc4ccc(F)cc43)c2c1
3. Cc1ccc(C(c2c[nH]c3ccccc23)c2c[nH]c3ccccc23)cc1
4. O=[N+]([O-])c1ccc2[nH]cc(Cc3c[nH]c4ccc([N+](=O)[O-])cc34)c2c1
5. Fc1ccc2[nH]cc(Cc3c[nH]c4ccc(F)cc34)c2c1
6. c1ccc(COc2ccc3[nH]cc(Cc4c[nH]c5ccc(OCc6ccccc6)cc45)c3c2)cc1

Response:
6.73
< 5.00
< 5.00
< 5.00
7.10
< 5.00

Quick request: pEC50 for each listed item, please.
1. O=[N+]([O-])c1ccc(C(c2c[nH]c3ccccc23)c2c[nH]c3ccccc23)cc1
2. O=Cc1ccc2[nH]cc(Cc3c[nH]c4ccc(C=O)cc34)c2c1
3. c1cc2c(c(C(c3c[nH]c4ccccc34)c3c[nH]c4ccccc34)c1)OCO2
4. O=C1Nc2ccccc2C1=Cc1c[nH]c2ccc(F)cc12
5. COc1ccc2[nH]cc(Cc3c[nH]c4ccccc34)c2c1
6. Clc1cccc2[nH]cc(Cc3c[nH]c4cccc(Cl)c34)c12
7. CCCC(c1c[nH]c2ccccc12)c1c[nH]c2ccccc12

Response:
["< 5.00", "< 5.00", "< 5.00", "< 5.00", 5.72, 5.94, "< 5.00"]

====

Target: G-protein coupled receptor 84 (Homo sapiens)
Test: Agonist activity at Gi coupled human GPR84 expressed in CHO cells assessed as inhibition of forskolin-induced cAMP accumulation at 10 uM after 15 mins in presence of [3H]-cAMP by radiometric assay relative to decanoic acid
Assay type: functional, cell-based
Hi there, I'd appreciate the recorded Emax for every entry that follows.
One number for each entry, in %.

Before answering, review these 6 worked examples.
Fc1ccc2c(Cc3c[nH]c4cc(F)ccc34)c[nH]c2c1 :: 89
Clc1ccc2[nH]cc(Cc3c[nH]c4ccc(Cl)cc34)c2c1 :: 86
CC(C)C(c1c[nH]c2ccccc12)c1c[nH]c2ccccc12 :: 16
Cc1ccc(C(c2c[nH]c3ccccc23)c2c[nH]c3ccccc23)cc1 :: 2
Cc1ccc2[nH]cc(Cc3c[nH]c4ccc(C)cc34)c2c1 :: 45
COc1ccc2[nH]cc(Cc3c[nH]c4ccccc34)c2c1 :: 97

Turning now to a further compound:
Query: Fill in the blank: the reported Emax of Fc1cc(F)c2[nH]cc(Cc3c[nH]c4c(F)cc(F)cc34)c2c1 is ____.
Response: 131
